# PROTOCOL TEXT: Luminescence activity assay of purified Gaussia luciferase mutants on fluoro-coelenterazine
# Type: biochemical
# Design: key: ratio of mutant luminescence intensity to wild-type Gaussia luciferase
# TEST PARAMETERS: Substrate f-CTZ (Table 16)
MEASURED ENDPOINT: Activity of mutant relative to wild-type Gaussia luciferase without the signal peptide

MOLECULE: F26S N27Y V29C A32G S33E A36Q T37G L40T: Gaussia luciferase mutant (protein, SIGNAL (1)..(17), Gaussia luciferase mutant) MGVKVLFALICIAVAEAKPTENNEDSYICAVGENFQGTDTDADRGKLPGKKLPLEVLKEMEANARKAGCTRGCLICLSHIKCTPKMKKFIPGRCHTYEGDKESAQGGIGEAIVDIPEIPGFKDLEPMEQFIAQVDLCVDCTTGCLKGLANVQCSDLLKKWLPQRCATFASKIQGQVDKIKGAGGD
REPORTED VALUE: 0.143
